Each entry below lists one item and its recorded chemical recovery by SPE of plasma value.
PROTOCOL_DETAILS: chemical recovery by SPE of plasma after PDMS sampling; higher = better extraction;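 also: over 400 spiked chemicals quantified by LC-HRMS or GC-HRMS via internal standard calibration, recovery relative to spike mix added to unspiked plasma extract to correct matrix effects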
TEST_SETTINGS: pooled human plasma; extraction method: HLB SPE of plasma after PES; equilibration time (d): 3

{"columns": ["COMPOUND", "chemical recovery by SPE of plasma, %"],
 "data": [
  ["CC(=O)CC(c1ccccc1)c1c(O)c2ccccc2oc1=O (stereo not drawn)", 66.6],
  ["O=C1Cc2cc(CCN3CCN(c4nsc5ccccc45)CC3)c(Cl)cc2N1", 34],
  ["CCCCCCCCCCCCCC(=O)NCCC[N+](C)(C)CCCS(=O)(=O)[O-]", 26.1],
  ["Oc1ccccc1-c1ccccc1", 3.47],
  ["CCN(CCCCOC(=O)c1ccc(OC)c(OC)c1)C(C)Cc1ccc(OC)cc1 (stereo not drawn)", 0.295],
  ["CCCc1nc2c(C)cc(-c3nc4ccccc4n3C)cc2n1Cc1ccc(-c2ccccc2C(=O)O)cc1", 46.2],
  ["OC(c1ccc(Cl)cc1)(c1ccc(Cl)cc1)C(Cl)(Cl)Cl", 15],
  ["CC1(C)O[C@@H]2C[C@H]3[C@@H]4C[C@H](F)C5=CC(=O)C=C[C@]5(C)[C@H]4[C@@H](O)C[C@]3(C)[C@]2(C(=O)CO)O1 [Flunisolide]", 37.1]
]}
